This collection of values is drawn from the supplement of paper PMC5579334.

- Test system: HS-PSS
- procedure-details: relative IC50 (inflection point of fitted dose-response curve, CellTiter-Glo viability, 72 h; top asymptote may be below 50% inhibition); higher = less potent

{"compound": "COc1cc(CCc2cc(NC(=O)c3ccc(N4CC(C)NC(C)C4)cc3)n[nH]2)cc(OC)c1 (centres undefined)", "relative IC50": "> 1 µM"}
{"compound": "CN1CCC(COc2cnc(-c3cccc(Cn4nc(-c5cccc(C#N)c5)ccc4=O)c3)nc2)CC1", "relative IC50": "> 1 µM"}
{"compound": "CN(C)/N=N/c1[nH]cnc1C(N)=O", "relative IC50": "> 10 µM"}
{"compound": "CCc1c(C(=O)C(N)=O)c2c(OCC(=O)O)cccc2n1Cc1ccccc1", "relative IC50": "> 10 µM"}

====

- Test system: HS-PSS
- procedure-details: relative IC50 (inflection point of fitted dose-response curve, CellTiter-Glo viability, 72 h; top asymptote may be below 50% inhibition); higher = less potent

{"molecule": "Cn1c(CCCC(=O)O)nc2cc(N(CCCl)CCCl)ccc21", "study-target": "HS-PSS", "relative IC50": "> 10 µM"}
{"molecule": "CC(C)C[C@H](NC(=O)[C@@H](COC(C)(C)C)NC(=O)[C@H](Cc1ccc(O)cc1)NC(=O)[C@H](CO)NC(=O)[C@H](Cc1c[nH]c2ccccc12)NC(=O)[C@H](Cc1cnc[nH]1)NC(=O)[C@@H]1CCC(=O)N1)C(=O)N[C@@H](CCCNC(=N)N)C(=O)N1CCC[C@H]1C(=O)NNC(N)=O", "study-target": "HS-PSS", "relative IC50": "> 10 µM"}
{"molecule": "Cc1ccc(NC(=O)c2ccc(CN3CC[C@H](N(C)C)C3)c(C(F)(F)F)c2)cc1Nc1nccc(-c2cncnc2)n1", "study-target": "HS-PSS", "relative IC50": "> 1 µM"}
{"molecule": "O=P1(N(CCCl)CCCl)NCCCO1 (centres undefined) [Cyclophosphamide]", "study-target": "HS-PSS", "relative IC50": "> 40 µM"}

====

# key: entry, value: relative IC50
- System: HS-PSS
- procedure-details: relative IC50 (inflection point of fitted dose-response curve, CellTox-Green cytotoxicity, 72 h; top asymptote may be below 50%); higher = less potent

{"compound": "OCCn1cc(-c2cnc3nnn(Cc4ccc5ncccc5c4)c3n2)cn1", "relative IC50": "> 2.5 µM"}
{"compound": "CC(=O)O[C@]1(C(C)=O)CC[C@H]2[C@@H]3C=C(C)C4=CC(=O)CC[C@]4(C)[C@H]3CC[C@@]21C [Megestrol acetate]", "relative IC50": "> 10 µM"}
{"compound": "C[C@H]1C=C2C(=O)O[C@H]3CC[C@@H](C1)[C@@]23O", "relative IC50": "> 25 µM"}
{"compound": "CC(=O)[C@]1(O)Cc2c(O)c3c(c(O)c2[C@@H](O[C@H]2C[C@H](N)[C@H](O)[C@H](C)O2)C1)C(=O)c1ccccc1C3=O", "relative IC50": "0.162 µM"}
{"compound": "CC(C)(C)c1cnc(CSc2cnc(NC(=O)C3CCNCC3)s2)o1", "relative IC50": "2.45 µM"}
{"compound": "CCC1(c2ccc(N)cc2)CCC(=O)NC1=O (centres undefined) [Aminoglutethimide]", "relative IC50": "> 10 µM"}
{"compound": "NC1(C(=O)N[C@@H](CCO)c2ccc(Cl)cc2)CCN(c2ncnc3[nH]ccc23)CC1", "relative IC50": "> 10 µM"}
{"compound": "C[C@@H](Oc1cc(-c2cnn(C3CCNCC3)c2)cnc1N)c1c(Cl)ccc(F)c1Cl", "relative IC50": "> 1 µM"}
{"compound": "COc1cccc2c1C(=O)c1c(O)c3c(c(O)c1C2=O)C[C@@](O)(C(=O)CO)C[C@@H]3O[C@H]1C[C@H](N)[C@H](O)[C@H](C)O1", "relative IC50": "0.367 µM"}
{"compound": "Cc1ncc(Cl)cc1NCc1ccc(C(=O)N[C@@H](CC2CCCC2)C(=O)NC2CC2)s1", "relative IC50": "> 5 µM"}
{"compound": "CC(C)c1c(C(=O)Nc2ccccc2)c(-c2ccccc2)c(-c2ccc(F)cc2)n1CC[C@@H](O)C[C@@H](O)CC(=O)O", "relative IC50": "> 10 µM"}
{"compound": "Cc1nc(N)sc1-c1ccnc(Nc2ccc(N3CCOCC3)cc2)n1", "relative IC50": "> 10 µM"}
{"compound": "Cc1cc(C(=O)NOCCO)c(Nc2ccc(I)cc2F)n(C)c1=O", "relative IC50": "> 10 µM"}
{"compound": "COc1cc(F)c(F)c(Nc2ccc(I)cc2F)c1NS(=O)(=O)C1(C[C@H](O)CO)CC1", "relative IC50": "3.27 µM"}
{"compound": "C[C@]12CC[C@H](O)CC1=CC[C@@H]1[C@@H]2CC[C@]2(C)C(c3cccnc3)=CC[C@@H]12", "relative IC50": "> 5 µM"}
{"compound": "C#Cc1cccc(Nc2ncnc3cc(OCCOC)c(OCCOC)cc23)c1", "relative IC50": "> 10 µM"}
{"compound": "CCNC(=O)CCC/C=C\\C[C@@H]1[C@@H](/C=C/[C@@H](O)CCc2ccccc2)[C@H](O)C[C@@H]1O", "relative IC50": "> 5.5 µM"}
{"compound": "CO[C@H]1C[C@@H]2CC[C@@H](C)[C@@](O)(O2)C(=O)C(=O)N2CCCC[C@H]2C(=O)O[C@H]([C@H](C)C[C@@H]2CC[C@@H](OP(C)(C)=O)[C@H](OC)C2)CC(=O)[C@H](C)/C=C(\\C)[C@@H](O)[C@@H](OC)C(=O)[C@H](C)C[C@H](C)/C=C/C=C/C=C/1C", "relative IC50": "> 0.1 µM"}
{"compound": "c1ccc2c(CCNc3ccc(Nc4ccncc4)cc3)c[nH]c2c1", "relative IC50": "3.24 µM"}

====

- Tested on: HSC2 (primary human Schwann cells)
- procedure-details: drug sensitivity score (DSS, CellTiter-Glo viability, 72 h) (DSS (dimensionless)); higher = more sensitive; extreme values may be limits of the assay
# key: entry, value: drug sensitivity score
observation-type: drug sensitivity score

{"molecule": "CC[C@@H]1C(=O)N(C)c2cnc(Nc3ccc(C(=O)N[C@H]4CC[C@H](N5CCN(CC6CC6)CC5)CC4)cc3OC)nc2N1C(C)C [Volasertib] (max concentration tested 1000 nM)", "assay-value": 14.8}
{"molecule": "CCc1cncnc1N1CCN(Cc2nc3ccc(C(F)(F)F)cc3[nH]2)CC1 (max concentration tested 10000 nM)", "assay-value": 0.531}
{"molecule": "COc1cc2/c(=N/c3ccc(Br)cc3F)nc[nH]c2cc1OCC1CCN(C)CC1 [Vandetanib] (max concentration tested 1000 nM)", "assay-value": 0}

====

# key: entry, value: relative IC50
- Test system: STS26T
- procedure-details: relative IC50 (inflection point of fitted dose-response curve, CellTox-Green cytotoxicity, 72 h; top asymptote may be below 50%); higher = less potent

{"chemical-string": "Cn1cnc2c(F)c(Nc3ccc(Br)cc3Cl)c(C(=O)NOCCO)cc21", "study-target": "STS26T", "relative IC50": "> 10 µM"}
{"chemical-string": "C[C@]12CC[C@H](O)CC1=CC[C@@H]1[C@@H]2CC[C@]2(C)C(c3cccnc3)=CC[C@@H]12", "study-target": "STS26T", "relative IC50": "> 5 µM"}
{"chemical-string": "C[C@]1(c2nc3c(C(N)=O)cccc3[nH]2)CCCN1", "study-target": "STS26T", "relative IC50": "> 10 µM"}

====

- Test system: HSC1 (primary human Schwann cells)
- procedure-details: drug sensitivity score (DSS, CellTiter-Glo viability, 72 h) (DSS (dimensionless)); higher = more sensitive; extreme values may be limits of the assay

{"compound": "CO[C@H]1[C@@H](N(C)C(=O)c2ccccc2)C[C@@H]2O[C@@]1(C)n1c3ccccc3c3c4c(c5c6ccccc6n2c5c31)C(=O)NC4 [Midostaurin] (max concentration tested 10000 nM)", "drug sensitivity score": 21.6}
{"compound": "Nc1ncn([C@H]2C[C@H](O)[C@@H](CO)O2)c(=O)n1 [Decitabine] (max concentration tested 10000 nM)", "drug sensitivity score": 3.33}
{"compound": "c1ccc2c(CCNc3ccc(Nc4ccncc4)cc3)c[nH]c2c1 [Serdemetan] (max concentration tested 10000 nM)", "drug sensitivity score": 6.36}
{"compound": "CO[C@H]1C[C@@H]2CC[C@@H](C)[C@@](O)(O2)C(=O)C(=O)N2CCCC[C@H]2C(=O)O[C@H]([C@H](C)C[C@@H]2CC[C@@H](OP(C)(C)=O)[C@H](OC)C2)CC(=O)[C@H](C)/C=C(\\C)[C@@H](O)[C@@H](OC)C(=O)[C@H](C)C[C@H](C)/C=C/C=C/C=C/1C [Ridaforolimus] (max concentration tested 100 nM)", "drug sensitivity score": 16.8}
